- Tested on: Staphylococcus aureus
- EXPERIMENTAL_PROTOCOL: Antibacterial activity against Staphylococcus aureus 7323 after 24 to 96 hrs by well microplate assay
- Format: functional
Where a SMILES comes first, the peptide text is derived from it. [ ]: non-standard residue; d: D form. The star is where a group is joined. Phe(4-NH2) = Nc1ccc(C[C@H](N)C(=O)O)cc1; Orn = NCCC[C@H](N)C(=O)O; PhAc = O=C(Cc1ccccc1)*
QUANTITY_MEASURED: MIC (µg/mL)
The response must be a number in µg/mL with no trailing unit.

{"COMPOUND": "CC(C)C[C@@H]1NC(=O)[C@H](CCCN)NC(=O)[C@H](C(C)C)NC(=O)[C@@H]2CCCN2C(=O)[C@H](Cc2ccccc2)NC(=O)[C@H](CC(C)C)NC(=O)[C@H](CCCN)NC(=O)[C@H](C(C)C)NC(=O)[C@@H]2CCCN2C(=O)[C@H](Cc2ccc(NC(=O)Cc3ccccc3)cc2)NC1=O (cyclo(FPV[Orn]L[Phe(4-NH2)](PhAc)PV[Orn]L))", "MIC / µg/mL": 8}

Now turn to the next compound.
[ask] GET /values?readout=MIC&item= CC(=O)Nc1ccc(C[C@@H]2NC(=O)[C@H](CC(C)C)NC(=O)[C@H](CCCN)NC(=O)[C@H](C(C)C)NC(=O)[C@@H]3CCCN3C(=O)[C@H](Cc3ccccc3)NC(=O)[C@H](CC(C)C)NC(=O)[C@H](CCCN)NC(=O)[C@H](C(C)C)NC(=O)[C@@H]3CCCN3C2=O)cc1 (cyclo(FPV[Orn]L[Phe(4-NH2)](Ac)PV[Orn]L))
[reply] 64

###

- Test system: Streptococcus mitis
- EXPERIMENTAL_PROTOCOL: Antibacterial activity against Streptococcus mitis BMS after 24 to 96 hrs by well microplate assay
- Format: functional
*1 amine or outer side, *2 acyl side, *3 side chain or, on linkers, in order; H or OH if unused. Where a SMILES comes first, the peptide text is derived from it. [ ]: non-standard residue; d: D form. The star is where a group is joined. Phe(4-NO2) = N[C@@H](Cc1ccc([N+](=O)[O-])cc1)C(=O)O; X3 = O=C([C@H](Cc1ccc(NCc2ccccc2)cc1)N[*:1])[*:2]; Phe(4-NH2) = Nc1ccc(C[C@H](N)C(=O)O)cc1; Isobutyryl = CC(C)C(=O)*; Orn = NCCC[C@H](N)C(=O)O; Propionyl = CCC(=O)*
QUANTITY_MEASURED: MIC
Field note: include the unit after the figure.

Solved cases (3 shown):
{"COMPOUND": "CC(=O)Nc1ccc(C[C@@H]2NC(=O)[C@H](CC(C)C)NC(=O)[C@H](CCCN)NC(=O)[C@H](C(C)C)NC(=O)[C@@H]3CCCN3C(=O)[C@H](Cc3ccccc3)NC(=O)[C@H](CC(C)C)NC(=O)[C@H](CCCN)NC(=O)[C@H](C(C)C)NC(=O)[C@@H]3CCCN3C2=O)cc1 (cyclo(FPV[Orn]L[Phe(4-NH2)](Ac)PV[Orn]L))", "MIC": "8 µg/mL"}
{"COMPOUND": "CCC(=O)Nc1ccc(C[C@@H]2NC(=O)[C@H](CC(C)C)NC(=O)[C@H](CCCN)NC(=O)[C@H](C(C)C)NC(=O)[C@@H]3CCCN3C(=O)[C@H](Cc3ccccc3)NC(=O)[C@H](CC(C)C)NC(=O)[C@H](CCCN)NC(=O)[C@H](C(C)C)NC(=O)[C@@H]3CCCN3C2=O)cc1 (cyclo(FPV[Orn]L[Phe(4-NH2)](Propionyl)PV[Orn]L))", "MIC": "8 µg/mL"}
{"COMPOUND": "CC(C)C[C@@H]1NC(=O)[C@H](CCCN)NC(=O)[C@H](C(C)C)NC(=O)[C@@H]2CCCN2C(=O)[C@H](Cc2ccccc2)NC(=O)[C@H](CC(C)C)NC(=O)[C@H](CCCN)NC(=O)[C@H](C(C)C)NC(=O)[C@@H]2CCCN2C(=O)[C@H](Cc2ccc(NC(=O)C(C)C)cc2)NC1=O (cyclo(FPV[Orn]L[Phe(4-NH2)](Isobutyryl)PV[Orn]L))", "MIC": "8 µg/mL"}

[ask] GET /values?readout=MIC&item= CC(C)C[C@@H]1NC(=O)[C@H](CCCN)NC(=O)[C@H](C(C)C)NC(=O)[C@@H]2CCCN2C(=O)[C@H](Cc2ccccc2)NC(=O)[C@H](CC(C)C)NC(=O)[C@H](CCCN)NC(=O)[C@H](C(C)C)NC(=O)[C@@H]2CCCN2C(=O)[C@H](Cc2ccc([N+](=O)[O-])cc2)NC1=O (cyclo(FPV[Orn]L[Phe(4-NO2)]PV[Orn]L))
[reply] 32 µg/mL

[ask] GET /values?readout=MIC&item= CC(C)C[C@@H]1NC(=O)[C@H](CCCN)NC(=O)[C@H](C(C)C)NC(=O)[C@@H]2CCCN2C(=O)[C@H](Cc2ccccc2)NC(=O)[C@H](CC(C)C)NC(=O)[C@H](CCCN)NC(=O)[C@H](C(C)C)NC(=O)[C@@H]2CCCN2C(=O)[C@H](Cc2ccc(NCc3ccccc3)cc2)NC1=O (cyclo(FPV[Orn]L[X3]PV[Orn]L))
[reply] 64 µg/mL

[ask] GET /values?readout=MIC&item= CC(C)C[C@@H]1NC(=O)[C@H](CCCN)NC(=O)[C@H](C(C)C)NC(=O)[C@@H]2CCCN2C(=O)[C@H](Cc2ccccc2)NC(=O)[C@H](CC(C)C)NC(=O)[C@H](CCCN)NC(=O)[C@H](C(C)C)NC(=O)[C@@H]2CCCN2C(=O)[C@H](Cc2ccc(N)cc2)NC1=O (cyclo(FPV[Orn]L[Phe(4-NH2)]PV[Orn]L))
[reply] 8 µg/mL

These entries and their values trace back to ChEMBL document CHEMBL1152538.
